Source: paper PMC9804387

# Tested on: P. falciparum (Pf) 3D7 parasites
# RUN DESCRIPTION: P. falciparum LDH viability assay
# Type: cell-based
# ASSAY CONTEXT: Plasmodium falciparum, 3D7, 72 h, LDH activity, 72 h at 37 °C; mean and SD of 3 independent experiments
pEC50: −log10 of the molar value. Where a name gives a salt, the structure may show the parent alone.
Criterion: pEC50 meeting or surpassing 7. Met: Criterion met. Not met: Criterion not met.

// below: answered molecules
{"MOLECULE": "CC(C)C[C@H](NC(=O)OCc1ccccc1)C(=O)N[C@@H](Cc1ccccc1)[C@H](O)CN[C@H](C)c1ccccc1 [Compd 35, Cbz‐Leu‐Phe‐HEA‐Bn(CH3)]", "CLASS LABEL": "Criterion not met"}
{"MOLECULE": "CC(C)CC(NC(=O)C(Cc1ccccc1)NC(=O)C(CO)NC(=O)OCc1ccccc1)C(O)CNC(C)c1ccccc1 (stereo not drawn) [Compd 23, Cbz‐Ser‐Phe‐Leu‐HEA‐Bn(CH3)⋅TFA]", "CLASS LABEL": "Criterion not met"}
{"MOLECULE": "CC(=O)NC(CC(N)=O)C(=O)NC(CO)C(=O)NC(Cc1ccccc1)C(O)CNC(C)c1ccccc1 (stereo not drawn) [Compd 27, Ac‐Asn‐Ser‐Phe‐HEA‐Bn(CH3)⋅TFA]", "CLASS LABEL": "Criterion not met"}

q: Form field: pEC50 at least 7? Entry: CC(C)[C@H](NC(=O)OCc1ccccc1)C(=O)N[C@@H](Cc1ccccc1)[C@H](O)CN[C@H](C)c1ccccc1 [Compd 34, Cbz‐Val‐Phe‐HEA‐Bn(CH3)]
a: Criterion met

q: Identify whether the reported pEC50 of the following molecule is 7 or greater: CCC(C)C(NC(C)=O)C(=O)NC(CO)C(=O)NC(Cc1ccccc1)C(O)CNC(C)c1ccccc1 (stereo not drawn) [Compd 26, Ac‐Ile‐Ser‐Phe‐HEA‐Bn(CH3)⋅TFA]
a: Criterion not met

====

# ASSAYED TARGET: recombinant Pf PMX (Plasmodium falciparum, UniProt Q8IAS0)
# Construct: made in house
# Sequence (Q8IAS0 222-573): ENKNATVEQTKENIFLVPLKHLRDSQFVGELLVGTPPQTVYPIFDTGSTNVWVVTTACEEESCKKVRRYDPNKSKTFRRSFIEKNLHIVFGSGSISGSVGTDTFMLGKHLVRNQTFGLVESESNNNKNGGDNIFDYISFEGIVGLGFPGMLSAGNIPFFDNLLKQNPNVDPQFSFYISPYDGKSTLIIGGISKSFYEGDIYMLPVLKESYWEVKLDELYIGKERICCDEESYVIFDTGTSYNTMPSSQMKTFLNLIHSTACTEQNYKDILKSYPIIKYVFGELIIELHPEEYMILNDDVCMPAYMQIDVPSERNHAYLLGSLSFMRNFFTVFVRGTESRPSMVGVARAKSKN
# RUN DESCRIPTION: PMX biochemical FRET assay (Rh2N fluorogenic substrate cleavage)
# ASSAY CONTEXT: Table 3; mean and SD of 4 replicate FRET experiments, 37 °C
Where a name gives a salt, the structure may show the parent alone.
TEST READOUT: pIC50
Lab note — pIC50 values are minus log10 of concentrations in M.

{"MOLECULE": "C[C@@H](NC[C@@H](O)[C@H](Cc1ccccc1)NC(=O)c1ccc(C(=O)N2CCN(C)CC2)cc1)c1ccccc1 [Compd 2, reference compound]", "REPORTED": 9.00}
{"MOLECULE": "CCC(C)C(NC(C)=O)C(=O)NC(CO)C(=O)NC(Cc1ccccc1)C(O)CNC(C)c1ccccc1 (stereo not shown) [Compd 26, Ac‐Ile‐Ser‐Phe‐HEA‐Bn(CH3)⋅TFA]", "REPORTED": 8.00}
{"MOLECULE": "C[C@@H](NC[C@@H](O)[C@H](Cc1ccccc1)NC(=O)[C@H](CO)NC(=O)OCc1ccccc1)c1ccccc1 [Compd 38, Cbz‐Ser‐Phe‐HEA‐Bn(CH3)⋅TFA]", "REPORTED": 7.22}

Please find the next molecule below.
q: Look up pIC50 for this molecule: CC(C)[C@H](NC(=O)OCc1ccccc1)C(=O)N[C@@H](Cc1ccccc1)[C@H](O)CN[C@H](C)c1ccccc1 [Compd 34, Cbz‐Val‐Phe‐HEA‐Bn(CH3)]
a: 8.00
